Test system: Fibroblast
Test: Multiplex assay against human fibroblast
Assay type: toxicity, cell-based
Conditions: 24 h, 1 µM, compound concentration 1 uM, replicate 2
test.readout: Population Apoptotic (%)
Write the value in % as a bare number.

compound=CCCSc1nc(N[C@@H]2C[C@H]2c2ccc(F)c(F)c2)c2nnn([C@@H]3C[C@H](OCCO)[C@@H](O)[C@H]3O)c2n1 test_readout="Population Apoptotic (%)" result=57
compound=COc1ccccc1CN[C@H]1C2CCN(CC2)[C@H]1C(c1ccccc1)c1ccccc1 test_readout="Population Apoptotic (%)" result=54

Give the reported Population Apoptotic (%) for this compound. `CCc1ccc(OCc2ccccc2C(=O)Nc2ccc3nc(C)cc(N)c3c2)cc1.Cl`
83

Annotate the compound `CCOC(=O)Nc1cc(-c2ccc(C)c(NS(C)(=O)=O)c2)nn2c(C)nnc12` with its measured Population Apoptotic (%).
50

Provide one value: measured Population Apoptotic (%) of `C=CC(=O)Nc1ccc2[nH]c(=O)n(C3CCN(Cc4ccc(-c5nc6cc[nH]c(=O)c6cc5-c5ccccc5)cc4)CC3)c2c1`
100
